# Target or test system: glucosylceramide synthase (GCS) enzyme in Golgi preparations from human A375 malignant melanoma skin cells (Homo sapiens (Human), UniProt Q16739)
# Sequence (Q16739 whole entry): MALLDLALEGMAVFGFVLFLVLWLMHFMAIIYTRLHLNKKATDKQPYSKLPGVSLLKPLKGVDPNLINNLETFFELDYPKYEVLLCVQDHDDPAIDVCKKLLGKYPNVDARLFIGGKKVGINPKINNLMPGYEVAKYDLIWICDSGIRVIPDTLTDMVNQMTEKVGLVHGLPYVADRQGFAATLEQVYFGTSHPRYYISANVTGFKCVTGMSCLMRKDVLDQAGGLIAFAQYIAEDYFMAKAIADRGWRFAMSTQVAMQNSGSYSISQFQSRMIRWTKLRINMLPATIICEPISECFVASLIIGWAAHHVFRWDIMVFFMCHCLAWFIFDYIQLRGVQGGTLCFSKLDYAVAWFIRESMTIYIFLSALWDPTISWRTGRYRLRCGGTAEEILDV
# Procedure details: UDP-Glo glucosylceramide synthase biochemical assay
# Applied conditions: 1.5 μg crude golgi preparation; C6 ceramide and UDP-glucose at 2×Km; 20 h incubation at room temperature; luminescence
This section presents compounds with their documented pEC50 values.
Lab note — pEC50 values are minus log10 of concentrations in M.

Below: 4 compounds and their reported pEC50.
Compound | pEC50
O=C(N1CCN2CCC1CC2)n1nc(-c2ccc(F)cc2)c2c1CC(F)(F)C2 | 8.33
O=C(N1CCN2CCC1CC2)n1nc(-c2cccc(Cl)c2F)c2c1COCC2 | 8.80
Cc1cccc(-c2nn(C(=O)N3CCN4CCC3CC4)c3c2COCC3)c1F | 9.52
O=C(N1CCN2CCC1CC2)n1nc(-c2ccc(F)c(F)c2F)c2c1CCOC2 | 9.05

Sure, the documented pEC50 for `O=C(N1CCN2CCC1CC2)n1nc(OC2CCCC2)c2c1CCC2` is 7.63

Value of measured pEC50 for the entry O=C(N1CCN2CCC1CC2)n1nc(C23CCCC2C3)c2c1CCC2 (single isomer, unassigned) : 8.62

Data origin, for the record: patent US20250026762A1
